Hello, the source for this data is paper PMC10397247, in case you need it.

Record form. Attribute: interaction score. Fill in for each entry.
Target: T1, 4H566-AA
T1 chain: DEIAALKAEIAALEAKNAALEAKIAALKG
Assay: two-hybrid library CCmax;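 also: natural log of median RNA to DNA barcode read ratio; higher means stronger binding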
Settings: mean of both orientations
Answers are plain numbers.

INSERT INTO results (binder, numeric_result) VALUES
  ('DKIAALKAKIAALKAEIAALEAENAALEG [4H2883-AA]', 0.102),
  ('DKNAALKAKIAALEAEIAALEAENAALKG [4H3844-AA]', -1.77),
  ('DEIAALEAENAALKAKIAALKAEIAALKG [4H234-AA]', 0.581);

Go through the items and report each one's interaction score.
1. DKNAALKAEIAALKAEIAALEAKNAALEG [4H3655-AA]
2. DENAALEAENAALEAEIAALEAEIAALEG [4H1153-AA]
3. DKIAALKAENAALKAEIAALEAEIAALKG [4H2754-AA]
4. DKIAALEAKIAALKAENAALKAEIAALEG [4H2393-AA]
5. DKNAALKAEIAALEAKIAALKAENAALEG [4H3627-AA]
6. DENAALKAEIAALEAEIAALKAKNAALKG [4H1552-AA]
7. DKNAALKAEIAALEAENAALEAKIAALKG [4H3606-AA]
8. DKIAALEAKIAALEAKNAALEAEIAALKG [4H2354-AA]

A:
-1.03
-1.5
-1.09
1.33
-0.771
-0.817
-0.683
0.225

Go through the items and report each one's interaction score.
1. DKNAALKAKIAALKAENAALEAEIAALEG [4H3921-AA]
2. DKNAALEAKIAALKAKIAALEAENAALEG [4H3427-AA]
3. DEIAALEAKNAALKAEIAALEAKIAALKG [4H454-AA]

A:
1: 0.811; 2: -1.35; 3: 0.133
